assay_system: TPM3-NTRK1 fusion gene (Homo sapiens, UniProt P04629)
Construct: the other entry of the earlier key: TPM3 (P06753, Tropomyosin alpha-3 chain)
Sequence (P04629 with tags, fused parts or gaps): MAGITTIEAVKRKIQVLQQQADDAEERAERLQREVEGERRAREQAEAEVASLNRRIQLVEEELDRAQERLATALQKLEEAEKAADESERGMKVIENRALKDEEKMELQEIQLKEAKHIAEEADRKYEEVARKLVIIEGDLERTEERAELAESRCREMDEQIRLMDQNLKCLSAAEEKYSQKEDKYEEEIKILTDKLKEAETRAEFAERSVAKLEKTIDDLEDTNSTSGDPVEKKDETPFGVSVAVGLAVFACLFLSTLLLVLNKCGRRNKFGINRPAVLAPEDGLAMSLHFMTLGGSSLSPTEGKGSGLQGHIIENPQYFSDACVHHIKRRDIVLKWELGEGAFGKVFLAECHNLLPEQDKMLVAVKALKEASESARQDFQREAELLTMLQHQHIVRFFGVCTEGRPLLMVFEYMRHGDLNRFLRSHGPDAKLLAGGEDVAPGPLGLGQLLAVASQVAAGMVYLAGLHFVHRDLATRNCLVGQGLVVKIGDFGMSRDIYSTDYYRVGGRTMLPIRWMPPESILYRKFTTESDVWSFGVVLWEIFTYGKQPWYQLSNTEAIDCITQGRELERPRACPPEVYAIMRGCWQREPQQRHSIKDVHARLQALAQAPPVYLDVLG
measurement_protocol: Viability of Ba/F3 expressing TPM3-NTRK1
test_conditions: Ba/F3 having TPM3-NTRK1 fusion gene; read-out: IC50 (viability rate)
outcome_measure: IC50
A complete answer gives the number and then names the unit.

Which IC50 is reported with TPM3-NTRK1 fusion gene (Homo sapiens, UniProt P04629) for this entry: CCc1nc(C(N)=O)c(Nc2ccc(N3CCC(N4CCN(C)CC4)CC3)c(OC)c2)nc1NC1CCOCC1 ? 13.3 nM

###

assay_system: EML4-ALK WT (Homo sapiens)
Sequence (Q9UM73 with tags, fused parts or gaps): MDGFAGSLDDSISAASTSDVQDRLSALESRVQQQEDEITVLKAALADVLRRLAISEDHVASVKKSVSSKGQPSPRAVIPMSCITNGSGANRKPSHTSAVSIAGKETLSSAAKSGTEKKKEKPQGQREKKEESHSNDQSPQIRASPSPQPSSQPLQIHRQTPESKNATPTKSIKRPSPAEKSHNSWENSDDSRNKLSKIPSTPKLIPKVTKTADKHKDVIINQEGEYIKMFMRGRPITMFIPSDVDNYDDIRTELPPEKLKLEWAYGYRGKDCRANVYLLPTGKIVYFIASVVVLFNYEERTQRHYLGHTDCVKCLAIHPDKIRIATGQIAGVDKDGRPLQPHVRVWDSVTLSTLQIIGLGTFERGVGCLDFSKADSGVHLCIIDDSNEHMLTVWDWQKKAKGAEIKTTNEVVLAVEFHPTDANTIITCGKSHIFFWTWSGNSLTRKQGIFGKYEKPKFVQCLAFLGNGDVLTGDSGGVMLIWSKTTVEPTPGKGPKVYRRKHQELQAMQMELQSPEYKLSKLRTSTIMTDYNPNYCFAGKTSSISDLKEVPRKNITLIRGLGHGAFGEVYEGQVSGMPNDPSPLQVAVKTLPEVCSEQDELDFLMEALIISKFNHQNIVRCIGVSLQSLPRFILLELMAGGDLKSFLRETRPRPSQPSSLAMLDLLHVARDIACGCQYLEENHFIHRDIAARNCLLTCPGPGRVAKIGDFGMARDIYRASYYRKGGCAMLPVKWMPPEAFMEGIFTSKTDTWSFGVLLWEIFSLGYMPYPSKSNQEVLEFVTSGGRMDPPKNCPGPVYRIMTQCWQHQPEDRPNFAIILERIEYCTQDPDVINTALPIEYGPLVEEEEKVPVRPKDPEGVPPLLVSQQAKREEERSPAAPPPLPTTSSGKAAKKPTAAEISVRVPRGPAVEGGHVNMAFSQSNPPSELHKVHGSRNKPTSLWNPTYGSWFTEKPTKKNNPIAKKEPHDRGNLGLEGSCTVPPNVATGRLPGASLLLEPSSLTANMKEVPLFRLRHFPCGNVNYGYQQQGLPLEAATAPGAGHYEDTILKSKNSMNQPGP
measurement_protocol: Ba/F3 cell viability, CellTiter-Glo
test_conditions: mouse, 72 h, 0.05 µM
Class boundaries, taken from values of viability rate of cells, are as follows: b0 (below 70), b1 (70 to below 100), b2 (100 or more)

Sample answers from the record:
{"molecule": "Cc1cc(Nc2ncc(Cl)c(Nc3ccccc3S(=O)(=O)C(C)C)n2)c(OC(C)C)cc1C1CCNCC1", "discrete_label": "b0"}
{"molecule": "COc1cc2nccc(Oc3ccc(NC(=O)C4(C(=O)Nc5ccc(F)cc5)CC4)cc3)c2cc1OC [Cabozantinib]", "discrete_label": "b2"}
{"molecule": "C=CC(=O)Nc1cc(Nc2nccc(-c3cn(C)c4ccccc34)n2)c(OC)cc1N(C)CCN(C)C", "discrete_label": "b1"}
{"molecule": "COc1cc2nccc(Oc3ccc(NC(=O)NC4CC4)c(Cl)c3)c2cc1C(N)=O", "discrete_label": "b1"}
{"molecule": "COc1cc(N2CCC(N3CCN(C)CC3)CC2)ccc1Nc1ncc(Cl)c(Nc2ccccc2P(C)(C)=O)n1", "discrete_label": "b0"}

Classify this molecule: C[C@]1(O)C[C@@H](c2nc(-c3ccc4ccc(-c5ccccc5)nc4c3)c3c(N)nccn32)C1 b2

Any idea which band Cc1nc(Nc2ncc(C(=O)Nc3c(C)cccc3Cl)s2)cc(N2CCN(CCO)CC2)n1 is in? b2

# classify by viability rate of cells band: CN1CCN(c2ccc(C(=O)Nc3n[nH]c4ccc(Cc5cc(F)cc(F)c5)cc34)c(NC3CCOCC3)c2)CC1 b0

Values were extracted from patent US20250099461A1.
